Documented IC50 across a set of compounds
Target: SARS-CoV-2 Mpro (Severe acute respiratory syndrome coronavirus 2, UniProt P0DTD1)
ATTRIBUTE MEASURED: IC50

O=C1CSC(c2ccc([N+](=O)[O-])cc2)N1CCc1cccc(F)c1 (stereo not shown) : > 30 µM
O=C1CSC(c2ccc([N+](=O)[O-])cc2)N1CCc1ccccc1 (stereo not shown) : > 30 µM
O=C1CSC(c2ccc([N+](=O)[O-])cc2)N1CCc1ccc(F)cc1 (stereo not shown) : 27.5 µM
O=C1CSC(c2ccc([N+](=O)[O-])cc2)N1CCc1ccccc1F (stereo not shown) : > 30 µM

* * *

Molecular target: SARS-CoV-2 Mpro (Severe acute respiratory syndrome coronavirus 2, UniProt P0DTD1)
Assay: biochemical
Format: biochemical
Details: SARS-CoV-2 Mpro, at 30 μM (highest concentration tested); read-out: Percentage of control activity measured in the presence of the indicated drug concentration
Threshold 80%: remaining activity at 30 µM strictly smaller gives 1 (yes), otherwise 0 (no).

O=C1CSC(c2ccc([N+](=O)[O-])cc2)N1CCc1ccc(Cl)cc1 (stereo not drawn) : 1 (yes)
O=C1CSC(c2ccc([N+](=O)[O-])cc2)N1CCc1ccccc1 (stereo not drawn) : 1 (yes)
COc1ccccc1CCN1C(=O)CSC1c1ccc([N+](=O)[O-])cc1 (stereo not drawn) : 1 (yes)
O=C1CSC(c2ccc([N+](=O)[O-])cc2)N1CCc1ccccc1F (stereo not drawn) : 1 (yes)
O=C1CSC(c2ccc([N+](=O)[O-])cc2)N1CCc1cccc(F)c1 (stereo not drawn) : 0 (no)

* * *

Some compounds, each annotated with its measured melting point.
ATTRIBUTE MEASURED: melting point

O=C1CSC(c2ccc([N+](=O)[O-])cc2)N1CCc1ccccc1Cl (centres unmarked) [Compound 4e] : 123 to 124.5 °C
O=C1CSC(c2ccc([N+](=O)[O-])cc2)N1CCc1ccccc1 (centres unmarked) [Compound 4a] : 125 °C
O=C1CSC(c2ccc([N+](=O)[O-])cc2)N1CCc1ccccc1F (centres unmarked) [Compound 4b] : 150 to 151 °C
O=C1CSC(c2ccc([N+](=O)[O-])cc2)N1CCc1ccc(F)cc1 (centres unmarked) [Compound 4d] : 149 to 151 °C
O=C1CSC(c2ccc([N+](=O)[O-])cc2)N1CCc1cccc(F)c1 (centres unmarked) [Compound 4c] : 165 to 167 °C
